Value source: paper PMC9482650

Target: T1, LRRC7, Q96NW7
T1 sequence (Q96NW7 1440-1537, limits assumed, looked up): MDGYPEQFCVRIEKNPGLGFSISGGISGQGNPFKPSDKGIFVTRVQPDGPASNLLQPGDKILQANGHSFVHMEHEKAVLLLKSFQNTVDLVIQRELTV
Assay: holdup assay
Design: key: below the threshold = too weak to quantify, mostly under pKd 3.1 to 4
Settings: plain residues with an end cap or a label only (N-terminal biotin on a linker: ado-ado)
measured endpoint: pKd

{"binder": "ARGPPRESEV [FAM110D, Q8TAY7]", "pKd": 4.15}
{"binder": "SPDRDRESIV [SCN5A, Q14524]", "pKd": 3.48}
{"binder": "ILRKSTTTTV [PRR16, Q569H4]", "pKd": "below the threshold"}
{"binder": "MQHQRTHTRV [ZSCAN30, Q86W11]", "pKd": "below the threshold"}
{"binder": "LESTTVGTSV [KARS1, Q15046]", "pKd": "below the threshold"}

List the reported pKd of each binder below.
1. PYPTADHMLA [JUP, P14923]
2. RDPPAEWTRV [PTPN18, Q99952]
3. LAHVKHKEQI [AQP3, Q92482]

result:
1. below the threshold
2. below the threshold
3. below the threshold
